Test system: ACHN renal
test-protocol: NCI-60 one-dose screen, 48 h (100 = growth as untreated, 0 = no growth, -100 = all killed)
recorded-conditions: 10 µM unless noted
About 83,000 compounds went through this panel and 20% of them were active in at least one assay; those are over-represented in the sample as a whole. The source made the active and inactive calls. Rule for the calls: active = growth percent below 10; inactive = the rest.
Recorded growth for the following molecules

// solved cases for growth follow
1) CC1(C)C(N)=Nc2cc(OCCCN3Cc4ccccc4C3)c(OCC3CC3)cc21 | 96.6% (inactive)
2) Cc1ccc(S(=O)(=O)OCCCOS(=O)(=O)c2ccc(C)cc2)cc1 | 96% (inactive)
3) C#COc1cccc(Nc2ncnc3cc(NC(=O)[C@@H](C)Cl)ccc23)c1 | 20.8% [6.25 µM] (inactive)

## Task Can you look up the measured growth of `O=c1c2ccccc2c(=O)c2c1sc1c(=O)c3ccc(O)cc3c(=O)c12` for me?
## Result -77.3% (active)

## Task Next up: `CSC(SC)=C(C#N)c1nc2ccccc2s1`
## Result 62.4% (inactive)

## Task Next up: `Oc1ccc(/C=C/c2ccc(O)cc2)cc1`
## Result 11% (inactive)
